- tgt: Neuropeptide S receptor (Homo sapiens)
- assayNotes: qHTS Assay for Antagonists of the Neuropeptide S Receptor: cAMP Signal Transduction; further: nearly all actives have a fitted effect of over 50% in size; further: potency means the concentration at half of the fitted maximal effect
- experimentalContext: CHO-NPSR cells, cAMP TR-FRET, antagonist mode; series mostly up to 38.3 µM
Out of some 220,000 compounds screened, about 2,300 (1%) were called active. Not shown: some 6% with an inconclusive outcome. For the sample, actives were picked, then their nearest neighbours and some compounds at random.
quantityMeasured: Potency

>>> result("CCOC(=O)/C(=C\\c1ccc([N+](=O)[O-])cc1)C(=O)c1cc(C(C)=O)c(Nc2ccccc2)s1")
"7.94 µM (active)"
>>> result("N#C/C(=C\\N1CCOCC1)S(=O)(=O)c1ccc(Cl)cc1")
"inactive"
>>> result("O=C(CC(O)(C(F)(F)F)C(F)(F)F)Nc1ccc(Cl)c(Cl)c1")
"6.31 µM (active)"
>>> result("O=C(C[n+]1ccc2c(c1)nnn2-c1ccccc1)c1ccc(Cl)cc1")
"inactive"
>>> result("O=C(NNC(=O)c1csc(-c2cccnc2)n1)Nc1ccc(Cl)cc1")
"inactive"
>>> result("Cc1cc(C)c2[nH]c(=O)c(C(c3nnnn3Cc3ccc4c(c3)OCO4)N3CCCC3)cc2c1 (stereo not given)")
"inactive"
>>> result("O=C(Cc1nc2ccccc2[nH]c1=O)c1ccc(Cl)cc1")
"inactive"
>>> result("O=C(Nc1ccc2c(c1)OCCO2)c1ccoc1")
"inactive"
>>> result("Cc1cccc2cc(CN(Cc3ccc4c(c3)OCO4)Cc3nnnn3C3CCCC3)c(=O)[nH]c12")
"12.6 µM (active)"
>>> result("CCOc1ccc(-c2n[nH]c(C)c2-c2ccccn2)c(O)c1")
"inactive"
